Data credit: patent US10654847B2

TGT: mAChR M1 (UniProt P11229)
PROCEDURE TEXT: mAChR M1 cell-based functional assay (calcium mobilization, potentiation of EC20 acetylcholine response)
PROTOCOL CONDITIONS: % ACh maximum at 30 μM; mAChR M1-expressing CHO-K1 cells, calcium flux
Classify by measured Emax (%): y if it is equal to or exceeds 60%, n if it is smaller.

Check if Emax (%) >= 60% (inclusive). Item: `O=C1c2cccnc2CN1Cc1ccc(-c2ccc3ncccc3c2)cc1F` y

Please check the record `CSc1ncc(-c2ccc(CN3Cc4ccccc4C3=O)c(F)c2)cn1` and state if its Emax (%) is at or above 60%. n

API: above_or_equal(metric=Emax (%), cutoff=60%) for item `Cn1cc2c(-c3cc(F)c(CN4Cc5ncccc5C4=O)cc3F)cccc2n1` y

Decide: is the reported value of Emax (%) for `Cn1cc(-c2cnc(CN3Cc4ccccc4C3=O)c(F)c2)cn1` equal to or greater than 60%? n

Is Emax (%) at least 60%? Consider `O=C1c2cccnc2CN1Cc1c(F)cc(-c2ccc3ncccc3c2)cc1F` n

Assess whether reported Emax (%) for `O=C1c2cccnc2CN1Cc1c(F)cc(-c2ccc3nccn3c2)cc1F` sits at 60% or higher. n

Could you verify whether the entry `O=C1c2cccnc2CN1Cc1c(F)cc(-c2cnc3ccccn23)cc1F` shows Emax (%) of no less than 60%? y

Is reported Emax (%) greater than or equal to 60% here: `O=C1c2cccnc2CN1Cc1ccc(-c2ccncc2)cc1F` y

Quick check, Emax (%) >= 60%? `O=C1c2ccccc2CN1Cc1ccc(-c2c[nH]nc2C(F)(F)F)cc1F` n
